Value Kind: logP

>  <Compound>
CCc1cc(C)cc(C)c1

>  <logP>
4.55

$$$$
>  <Compound>
CCc1ccc(CC)cc1

>  <logP>
4.58

$$$$
>  <Compound>
CCc1c(C)cccc1C

>  <logP>
4.28

$$$$
>  <Compound>
CCCc1cccc(C)c1

>  <logP>
4.67

$$$$
>  <Compound>
CCc1ccc(C)c(C)c1

>  <logP>
4.5

$$$$

A: CCC(C)c1ccccc1 (stereo unspecified)
B: CCCCCCCCCc1ccccc1
Task item: Select one: A or B . Criterion: greater recorded logP. Your choice should be expressed through its label.
Reply: B
(B: 7.11, A: 4.57)
